- target.or.system: Beta-galactosidase (Escherichia coli)
- Sequence (Q8VNN2 whole entry): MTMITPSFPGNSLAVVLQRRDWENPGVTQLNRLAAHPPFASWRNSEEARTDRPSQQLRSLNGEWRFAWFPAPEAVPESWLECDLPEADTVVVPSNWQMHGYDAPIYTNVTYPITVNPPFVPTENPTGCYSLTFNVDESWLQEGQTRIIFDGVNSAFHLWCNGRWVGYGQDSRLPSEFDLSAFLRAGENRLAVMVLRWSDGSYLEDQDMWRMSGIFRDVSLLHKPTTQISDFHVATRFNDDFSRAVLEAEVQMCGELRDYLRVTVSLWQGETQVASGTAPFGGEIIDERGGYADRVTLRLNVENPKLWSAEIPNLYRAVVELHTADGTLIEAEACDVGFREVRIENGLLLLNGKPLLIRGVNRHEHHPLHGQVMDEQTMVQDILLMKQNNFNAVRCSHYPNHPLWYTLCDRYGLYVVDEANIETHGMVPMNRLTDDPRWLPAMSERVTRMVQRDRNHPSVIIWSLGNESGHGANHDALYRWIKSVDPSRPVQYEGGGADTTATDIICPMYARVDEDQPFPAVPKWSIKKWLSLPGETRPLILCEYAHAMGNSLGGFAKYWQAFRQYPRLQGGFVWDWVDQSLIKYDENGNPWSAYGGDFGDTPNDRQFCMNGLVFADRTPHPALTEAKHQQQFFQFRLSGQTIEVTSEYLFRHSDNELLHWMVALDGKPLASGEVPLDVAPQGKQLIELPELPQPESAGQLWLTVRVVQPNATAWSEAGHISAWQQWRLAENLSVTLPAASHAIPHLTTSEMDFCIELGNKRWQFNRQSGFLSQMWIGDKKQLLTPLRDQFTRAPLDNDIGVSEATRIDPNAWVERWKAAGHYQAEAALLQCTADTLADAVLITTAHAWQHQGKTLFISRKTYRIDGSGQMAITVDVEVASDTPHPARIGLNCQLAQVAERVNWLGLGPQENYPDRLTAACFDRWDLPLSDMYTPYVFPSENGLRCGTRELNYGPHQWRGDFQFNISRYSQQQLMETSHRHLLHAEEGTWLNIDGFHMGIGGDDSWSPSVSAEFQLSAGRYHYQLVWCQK
- method.description: PubChem AID 485352
- Type: functional
Active and inactive are the calls of the source.
readout.type: EC50

In [3]: df
Out[3]:
                              mol_smiles               value
0   Oc1cc(CSc2ccc(Cl)cc2)nc(-c2ccccn2)n1  > 40 µM (inactive)
1  Cc1ccccc1N=C(S)NNc1ncc(C(F)(F)F)cc1Cl  > 40 µM (inactive)

We now examine a further compound.
input: State, for Beta-galactosidase (Escherichia coli), measured EC50 of the compound listed here: O=[N+]([O-])c1ccc(S(=O)(=O)c2ccccc2)nc1
output: > 40 µM (inactive)

* * *

- target.or.system: Delta-type opioid receptor (Homo sapiens, UniProt P41143)
- Sequence (P41143 whole entry): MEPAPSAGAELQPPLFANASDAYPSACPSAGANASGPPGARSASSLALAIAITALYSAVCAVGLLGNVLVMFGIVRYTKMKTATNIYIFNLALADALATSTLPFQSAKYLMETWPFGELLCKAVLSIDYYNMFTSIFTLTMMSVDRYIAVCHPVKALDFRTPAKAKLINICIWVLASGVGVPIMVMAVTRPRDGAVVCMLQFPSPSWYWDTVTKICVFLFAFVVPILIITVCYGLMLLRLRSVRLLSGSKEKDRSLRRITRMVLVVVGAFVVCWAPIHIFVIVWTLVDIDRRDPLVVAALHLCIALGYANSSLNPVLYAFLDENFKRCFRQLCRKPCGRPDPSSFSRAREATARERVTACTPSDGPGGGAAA
- method.description: Counterscreen for agonists of heterodimerization of the mu 1 (OPRM1) and delta 1 (OPRD1) opioid receptors: Luminescence-based cell-based high throughput dose response assay to identify agonists of OPRD1 homodimerization. [Related pubchem assays (depositor defined):AID504326, AID504355, AID504692, AID504904, AID504905]
- Format: functional
The source made the active and inactive calls.
readout.type: EC50

Take a look at these entries with their results.
                                   compound                 value
0  Cc1ccc(C2(O)C[N+](c3ccccc3)=C3SCCN32)cc1 (centres undefined)  > 92.5 µM (inactive)
1  Cc1ccc(OCC(=O)Nc2ccc(NC(=O)c3cccs3)cc2)c(C)c1  > 92.5 µM (inactive)
2  COc1ccc(C(CNC(=O)c2cncc(Br)c2)N(C)C)cc1 (centres undefined)    26.9 µM (inactive)

With those in mind, consider the next compound.
input: State its EC50 for this compound: Cc1cc(=O)oc2cc(NC(=O)C3COc4ccccc4O3)ccc12 (centres undefined)
output: > 92.5 µM (inactive)

* * *

Parameter 'readout' = AC50; parameter 'system' = Cytochrome P450 3A4 (Homo sapiens).
Sequence (P08684 whole entry): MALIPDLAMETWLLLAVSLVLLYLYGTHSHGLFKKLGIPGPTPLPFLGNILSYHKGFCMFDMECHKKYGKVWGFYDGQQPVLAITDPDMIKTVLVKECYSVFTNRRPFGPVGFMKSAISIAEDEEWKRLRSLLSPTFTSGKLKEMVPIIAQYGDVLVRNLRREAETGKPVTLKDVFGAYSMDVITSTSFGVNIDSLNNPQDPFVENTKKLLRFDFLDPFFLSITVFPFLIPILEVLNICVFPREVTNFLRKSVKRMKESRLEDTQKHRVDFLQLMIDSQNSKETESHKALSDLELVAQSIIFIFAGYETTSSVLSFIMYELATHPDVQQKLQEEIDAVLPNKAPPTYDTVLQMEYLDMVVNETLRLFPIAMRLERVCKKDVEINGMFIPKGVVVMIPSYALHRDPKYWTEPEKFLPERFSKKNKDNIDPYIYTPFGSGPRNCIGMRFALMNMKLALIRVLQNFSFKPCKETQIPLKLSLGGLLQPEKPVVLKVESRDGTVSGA

In [3]: df
Out[3]:
                                 mol_smiles                   value
0  COc1ccc(NC(=O)C(=O)NNC(=O)c2cccs2)c(OC)c1  17.8 µM (inconclusive)

input: Retrieve AC50 on Cytochrome P450 3A4 (Homo sapiens); query Cc1ccc(N2C(=O)/C(=C/c3ccc(CN(CCC#N)S(C)(=O)=O)o3)C(=O)NC2=S)cc1C
output: 22.4 µM (inconclusive)

input: # return AC50 for COC(=O)[C@@]1(Cc2ccc(OC)cc2)[C@H]2c3cc(C(=O)N4CCCC4)n(Cc4ccc(Cl)c(C(F)(F)F)c4)c3C[C@H]2CN1C(=O)c1ccccc1 , test system: Cytochrome P450 3A4 (Homo sapiens);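 also: CYP3A4 tested as one member of a cytochrome P450 panel screen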
output: 1.26 µM (inconclusive)

input: Check Cytochrome P450 3A4 (Homo sapiens) data and give AC50 for O=C(Oc1ccccc1)N1CCC[C@@]2(CCN(c3ncccn3)C2)C1 .
output: 15.8 µM (inconclusive)

* * *

- target.or.system: Protein RecA (Mycobacterium tuberculosis)
- method.description: Fluorescence Cell-Free Homogeneous Dose Retest to Identify Inhibitors of RecA-Intein Splicing Activity. [Related pubchem assays (depositor defined):AID2097, AID2223, AID489010, AID492950]
- Type: functional
Active and inactive are the calls of the source.
Just give me one of these, please: 1.0 for active, 0.0 for inactive

>>> print(df.to_string())
                                compound                          target_or_system  assigned_class
0   COc1ccc(C(=O)/C=C/Sc2nc3ccccc3o2)cc1  Protein RecA (Mycobacterium tuberculosis)             1.0
1  CCN(CC)C(=O)CSc1nnc2nnc3cc(OC)ccc3n12  Protein RecA (Mycobacterium tuberculosis)             1.0

input: Test call for this compound, please: O=C(O)/C=C/C(=O)Nc1ccc(C2(c3ccc(NC(=O)/C=C/C(=O)O)cc3)c3ccccc3-c3ccccc32)cc1
output: 1.0

input: Which outcome did this test record for the compound CCNc1ccccc1CP(=O)(c1ccccc1)c1ccccc1O (stereo not drawn) ?
output: 1.0

input: Kindly provide the recorded test outcome for the following compound: Cc1c(C#N)c(NC(=O)CCl)n(Cc2cccs2)c1C
output: 1.0

# credit: ChEMBL document CHEMBL1201862
